Ref: patent US9376418B2

Target: recombinant human GST-SYK (Homo sapiens)
Construct: purchased Carna Biosciences 08-176
Assay: Homogeneous Time-Resolved Fluorescence (HTRF) assay for the recombinant human Syk enzyme
Assay type: biochemical
Conditions: HTRF assay, recombinant human GST-SYK; IC50 given as class symbols; read-out: rhSYK Activity
pIC50: −log10 of the molar value.
recorded-endpoint: pIC50

Check out these entries, answers already filled in.
[in] Supply reported pIC50 belonging to this molecule: CCC[C@@H](Nc1ccc(-c2cc(C)cc(Nc3nccc(C(F)(F)F)n3)c2)cn1)C(=O)O [Example 7.107]
[out] > 7.00

[in] Could you please provide reported pIC50 for CC(=O)Nc1cc(Nc2nccc(C(F)(F)F)n2)cc(-c2ccc(N3CC[C@H]3C(=O)O)nc2)c1 [Example 7.2] ? Thanks!
[out] > 7.00

[in] Determine its reported pIC50: COC(=O)c1cncc(-c2cc(C)cc(Nc3nccc(C(F)(F)F)n3)c2)c1 [Example 2.53]
[out] 6.00 to 7.00

[in] // Input: Cc1cc(Nc2nccc(C(F)(F)F)n2)cc(-c2ccc(N[C@H](Cc3csc4ccccc34)C(=O)O)nc2)c1 [Example 7.79] . Output its pIC50 only.
[out] > 7.00

[in] Report pIC50 for Cc1cc(Nc2nccc(C(F)(F)F)n2)cc(-c2ccc(NC(=O)CC#N)nc2)c1 [Example 2.109]
[out] > 7.00

[in] Please supply the value of reported pIC50 for the item Cc1cc(Nc2nccc(C(F)(F)F)n2)cc(-c2ccc(C(=O)N3CCN(C)C(=O)C3)nc2)c1 [Example 16.20]
[out] > 7.00

[in] Could you please provide reported pIC50 for Cc1cc(Nc2nccc(C(F)(F)F)n2)cc(-c2ccnc(N3CCCC4(CCNC4=O)C3)c2)c1 (centres unmarked) [Example 15.29] ? Thanks!
[out] > 7.00

[in] Using the record for COc1ccnc(Nc2cc(C)cc(-c3ccc(CCC(=O)O)cn3)c2)n1 [Example 2.26] , state its measured pIC50.
[out] 6.00 to 7.00

[in] Determine its reported pIC50: Cc1cc(Nc2nccc(C(F)(F)F)n2)cc(-c2ccc(NCC(O)C(F)F)nc2)c1 (centres unmarked) [Example 7.17]
[out] > 7.00

[in] Give a short answer stating reported pIC50 for Cc1cc(Nc2nccc(C(F)(F)F)n2)cc(-c2ccnc(N3CCNCC3)c2)c1 [Example 2.126] .
[out] > 7.00

For every item in the list below, what is its measured pIC50?
1. Cc1cc(Nc2nccc(C(F)(F)F)n2)cc(-c2ccc(F)nc2)c1 [Example 4.4]
2. Cc1cc(Nc2nccc(C(F)(F)F)n2)cc(-c2ccnc(NCCN)c2)c1 [Example 15.41]
3. Cc1cc(Nc2nccc(C(F)(F)F)n2)cc(-c2ccc(C(=O)N(C)C(C3CC3)C3CC3)nc2)c1 [Example 16.36]
4. Cc1cc(Nc2nccc(C(F)(F)F)n2)cc(-c2cccnc2F)c1 [Example 2.45]
5. Cc1cc(Nc2nccc(C(F)(F)F)n2)cc(-c2ccc(N3CCC[C@@H](C(=O)N4CCC[C@H](C(=O)O)C4)C3)nc2)c1 [Example 7.150]
6. CC(O)c1ccc(-c2cc(Nc3nccc(C(F)(F)F)n3)cc(C(=O)O)c2)cn1 (centres unmarked) [Example 26.1]
7. Cc1cc(Nc2nccc(C(F)(F)F)n2)cc(-c2cccc(C(=O)O)n2)c1 [Example 2.13]

[out]
["6.00 to 7.00", "> 7.00", "6.00 to 7.00", "> 7.00", "> 7.00", "6.00 to 7.00", "> 7.00"]

----------
Target: recombinant human GST-SYK (Homo sapiens, UniProt P43405)
Construct: purchased Carna Biosciences 08-176
Assay: Homogeneous Time-Resolved Fluorescence (HTRF) assay for the recombinant human Syk enzyme
Assay type: biochemical
Details: HTRF assay, recombinant human GST-SYK; IC50 given as class symbols; read-out: rhSYK Activity
pIC50: −log10 of the molar value.
For each of the molecules below, state its pIC50.

These recorded examples may help you get a feel for the data.
[in] Give pIC50 for Cc1cc(Nc2nccc(C(F)(F)F)n2)cc(-c2cncc(F)c2)c1 [Example 4.3]
[out] > 7.00

[in] Supply reported pIC50 belonging to this molecule: Cc1cc(Nc2nccc(C(F)(F)F)n2)cc(-c2ccc(NC(C)(C#N)CC(F)(F)F)nc2)c1 (stereo not drawn) [Example 7.117]
[out] 6.00 to 7.00

[in] Fill in pIC50 for record Cc1cc(Nc2nccc(C(F)(F)F)n2)cc(-c2ccc(CCC(=O)O)nc2)c1 [Example 13.2]
[out] > 7.00

[in] Look up and report measured pIC50 for this entry: Cc1cc(Nc2nccc(C3CC3)n2)cc(-c2ccc(C(C)(O)[C@H]3CC[C@H](C(=O)O)CC3)nc2)c1 (stereo partly drawn) [Example 9.6]
[out] > 7.00

Provide the reported pIC50 of each entry below, same order.
1. Cc1cc(Nc2nccc(C(F)(F)F)n2)cc(-c2cccc(CCC(=O)O)n2)c1 [Example 2.31]
2. Cc1cc(Nc2nccc(C(F)(F)F)n2)cc(-c2ccnc(N[C@@H](C)CO)c2)c1 [Example 15.48]
3. Cc1cc(Nc2nccc(C(F)(F)F)n2)cc(-c2ccc(N3CC(C(=O)O)C3)nc2)c1 [Example 7.133]
4. CCOC(=O)CCc1cccc(-c2cc(C)cc(Nc3nccc(C4CC4)n3)c2)n1 [Example 2.38]
5. CC(=O)NCCNc1ccc(-c2cc(C)cc(Nc3nccc(C(F)(F)F)n3)c2)cn1 [Example 7.37]

[out]
["> 7.00", "> 7.00", "> 7.00", "6.00 to 7.00", "> 7.00"]
